Protocol summary: Biodistribution in AR42J tumor-bearing nude mice
Measurement parameters: mouse, in vivo, Biodistribution Stomach, Competition, 60 min p.i., coinjection of 20 μg/mouse unlabeled TOC, n = 3
Measure: tissue uptake at 1 h (%ID/g)
Return type: number; implicit unit %ID/g.

[in] Data request, read-out tissue uptake at 1 h, for C[C@@H](O)[C@H](NC(=O)[C@@H]1CSSC[C@H](NC(=O)[C@@H](Cc2ccccc2)NC(=O)CN2CCN(CC(=O)O)CCN(CC(=O)O)CCN(CC(=O)O)CC2)C(=O)N[C@@H](Cc2ccc(O)cc2)C(=O)N[C@H](Cc2c[nH]c3ccccc23)C(=O)N[C@@H](CCCCN)C(=O)N[C@@H]([C@@H](C)O)C(=O)N1)C(=O)O [[^68Ga]DOTATATE, [^68Ga]DOTA-Tyr^3-octreotate, metal not drawn]
[out] 0.7
